Reported Kd is given for each of the following binders.
- Target Desc: T1, GSTCDK6 (human, UniProt Q00534 1-326)
- T1 construct: also called GST-tagged CDK6
- T1 sequence (Q00534 whole entry): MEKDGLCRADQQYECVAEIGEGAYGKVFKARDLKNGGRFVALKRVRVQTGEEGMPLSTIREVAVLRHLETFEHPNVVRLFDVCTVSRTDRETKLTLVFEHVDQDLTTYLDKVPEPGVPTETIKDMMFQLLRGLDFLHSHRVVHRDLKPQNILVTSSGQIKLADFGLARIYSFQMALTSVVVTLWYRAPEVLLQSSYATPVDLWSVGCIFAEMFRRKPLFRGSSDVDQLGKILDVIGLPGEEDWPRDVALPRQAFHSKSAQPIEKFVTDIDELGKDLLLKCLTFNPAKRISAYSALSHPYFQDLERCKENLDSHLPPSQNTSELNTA
- Assay Details: SPR
- Condition Context: both partners purified
Please answer using the number first and the unit second.

Recorded results for 2 binders are shown here.
>  <Binder>
p16D108N (natural protein, UniProt P42771 1-156, looked up, also called p16INK4a D108N) MEPAAGSSMEPSADWLATAAARGRVEEVRALLEAGALPNAPNSYGRRPIQVMMMGSARVAELLLLHGAEPNCADPATLTRPVHDAAREGFLDTLVVLHRAGARLDVRNAWGRLPVDLAEELGHRDVARYLRAAAGGTRGSNHARIDAAEGPSDIPD

>  <Kd>
0.28 nM

$$$$
>  <Binder>
p16M53E (natural protein, UniProt P42771 1-156, looked up, also called p16INK4a M53E) MEPAAGSSMEPSADWLATAAARGRVEEVRALLEAGALPNAPNSYGRRPIQVMEMGSARVAELLLLHGAEPNCADPATLTRPVHDAAREGFLDTLVVLHRAGARLDVRDAWGRLPVDLAEELGHRDVARYLRAAAGGTRGSNHARIDAAEGPSDIPD

>  <Kd>
1.56 nM

$$$$

The binder identified as untagged p16INK4a (natural protein, UniProt P42771 1-156, looked up, also called wild-type p16INK4a; authentic p16INK4a) MEPAAGSSMEPSADWLATAAARGRVEEVRALLEAGALPNAPNSYGRRPIQVMMMGSARVAELLLLHGAEPNCADPATLTRPVHDAAREGFLDTLVVLHRAGARLDVRDAWGRLPVDLAEELGHRDVARYLRAAAGGTRGSNHARIDAAEGPSDIPD registered its Kd at 0.26 nM

The binder identified as p16D84N (natural protein, UniProt P42771 1-156, looked up, also called p16INK4a D84N) MEPAAGSSMEPSADWLATAAARGRVEEVRALLEAGALPNAPNSYGRRPIQVMMMGSARVAELLLLHGAEPNCADPATLTRPVHNAAREGFLDTLVVLHRAGARLDVRDAWGRLPVDLAEELGHRDVARYLRAAAGGTRGSNHARIDAAEGPSDIPD registered its Kd at 59.7 nM

The binder identified as p16M53I (natural protein, UniProt P42771 1-156, looked up, also called p16INK4a M53I) MEPAAGSSMEPSADWLATAAARGRVEEVRALLEAGALPNAPNSYGRRPIQVMIMGSARVAELLLLHGAEPNCADPATLTRPVHDAAREGFLDTLVVLHRAGARLDVRDAWGRLPVDLAEELGHRDVARYLRAAAGGTRGSNHARIDAAEGPSDIPD registered its Kd at 0.73 nM

Origin of measurements: paper PMC5681435
